Origin of the recorded values: patent US20110275721A1

test: Shake-flask liquid distribution ratio (Kd), Hexane:Water:Buffer of 10:9:1; type: physicochemical; details: THIAA Aug. 5, 2008; pH 5.5
Answer each item with its documented K Value.
Give bare numbers.

As a guide, the following entries are already answered.
[
  {
    "Compound": "CCC(C)C(=O)C1=C(O)C(O)(C(=O)CCC(C)C)C(CCC(C)C)C1=O (stereo not drawn) [TH 3, trans tetra ad-isoalpha acid]",
    "K Value": 17.8
  },
  {
    "Compound": "CCC(C)C(=O)C1=C(O)[C@@](O)(C(=O)CCC(C)C)[C@H](CCC(C)C)C1=O (single isomer, unassigned; (+)) [TH 4]",
    "K Value": 16.1
  },
  {
    "Compound": "CC(C)CCC(=O)[C@@]1(O)C(O)=C(C(=O)C(C)C)C(=O)[C@H]1CCC(C)C [TH 2]",
    "K Value": 2.5
  },
  {
    "Compound": "CC(C)CCC(=O)[C@]1(O)C(O)=C(C(=O)CC(C)C)C(=O)[C@H]1CCC(C)C [TH 5]",
    "K Value": 9.5
  }
]

For the next question, use this compound.
Return reported K Value; argument: CC(C)CCC(=O)[C@]1(O)C(O)=C(C(=O)C(C)C)C(=O)[C@H]1CCC(C)C [TH 1]
4.2

* * *

assay: Shake-flask liquid distribution ratio (Kd), Hexane:Water:Buffer of 10:9:1; format: physicochemical; conditions: THIAA Aug. 5, 2008; pH 4.9
Threshold check on K Value: strictly below 30 is Met; on or above 30 is Not met.

[
  {
    "Molecule": "CCC(C)C(=O)C1=C(O)[C@@](O)(C(=O)CCC(C)C)[C@H](CCC(C)C)C1=O (single isomer, unassigned; (+))",
    "Assigned Label": "Not met"
  },
  {
    "Molecule": "CC(C)CCC(=O)[C@]1(O)C(O)=C(C(=O)C(C)C)C(=O)[C@H]1CCC(C)C",
    "Assigned Label": "Met"
  },
  {
    "Molecule": "CC(C)CCC(=O)[C@]1(O)C(O)=C(C(=O)CC(C)C)C(=O)[C@H]1CCC(C)C",
    "Assigned Label": "Not met"
  }
]

Check if K Value falls below 30 for CCC(C)C(=O)C1=C(O)C(O)(C(=O)CCC(C)C)C(CCC(C)C)C1=O (stereo not drawn) [TH 3, trans tetra ad-isoalpha acid] .
Not met

Check if K Value falls below 30 for `CC(C)CCC(=O)[C@@]1(O)C(O)=C(C(=O)C(C)C)C(=O)[C@H]1CCC(C)C` .
Met

* * *

assay: Shake-flask liquid distribution ratio (Kd), Hexane:Water:Buffer of 10:9:1; assay type: physicochemical; settings: THIAA Aug. 5, 2008; pH 6.0
Reported Property: K Value
Numbers only.

As a guide, the following entries are already answered.
[
  {
    "Compound": "CC(C)CCC(=O)[C@]1(O)C(O)=C(C(=O)CC(C)C)C(=O)[C@H]1CCC(C)C [TH 5]",
    "K Value": 3.3
  },
  {
    "Compound": "CC(C)CCC(=O)[C@]1(O)C(O)=C(C(=O)C(C)C)C(=O)[C@H]1CCC(C)C [TH 1]",
    "K Value": 1.5
  },
  {
    "Compound": "CC(C)CCC(=O)[C@@]1(O)C(O)=C(C(=O)C(C)C)C(=O)[C@H]1CCC(C)C [TH 2]",
    "K Value": 0.9
  },
  {
    "Compound": "CCC(C)C(=O)C1=C(O)[C@@](O)(C(=O)CCC(C)C)[C@H](CCC(C)C)C1=O (single isomer, unassigned; (+)) [TH 4]",
    "K Value": 5.5
  }
]

For the next question, use this compound.
Return reported K Value; argument: CCC(C)C(=O)C1=C(O)C(O)(C(=O)CCC(C)C)C(CCC(C)C)C1=O (stereo not drawn) [TH 3, trans tetra ad-isoalpha acid]
5.5
